ASSAY REMARKS: modulators of CIT2-GFP expression in yeast, primary screen, S. cerevisiae, GFP fusion, multiplex flow cytometry (AID 1870);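 further: barcoded CIT2-GFP strain pooled with four other GFP strains with rapamycin as positive control; median GFP fluorescence per well over plate mean of DMSO wells so 100% = DMSO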
CONDITION: 3 h, at 10 µM, stronger effect = higher value
Items are presented alongside their recorded percent response of DMSO control.
Response body: numeric value in %, unit text excluded.

COMPOUND	READOUT KIND	VALUE REPORTED
CCS(=O)(=O)CCn1c([N+](=O)[O-])cnc1C	percent response of DMSO control	95.9
OC[C@@H](O)[C@@H](O[C@H]1O[C@H](CO)[C@@H](O)[C@H](O)[C@H]1O)[C@H](O)[C@@H](O)CO	percent response of DMSO control	88.4
NC(=O)OCC(COC(N)=O)c1ccccc1	percent response of DMSO control	102
NC12CC3CC(CC(C3)C1)C2	percent response of DMSO control	111
Cc1ccccc1-c1coc2cc(O)ccc2c1=O	percent response of DMSO control	90

With those in mind, consider the next compound.
Query: What does the record list as percent response of DMSO control for "C[C@@H]1C[C@H]2[C@@H]3CCC4=CC(=O)C=C[C@]4(C)[C@@]3(F)[C@@H](O)C[C@]2(C)[C@@]1(O)C(=O)COP(=O)(O)O" ?
Result: 101

###

Items are presented alongside their recorded response.
ASSAY REMARKS: yeast V-ATPase proton transport modulators, S. cerevisiae, pHLuorin, HTS validation (AID 504600);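 further: plate controls were DMSO for no effect and reference compound for full effect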
CONDITION: S. cerevisiae pHLuorin cytosolic pH, at 10 µM, stronger effect = higher value
Response body: numeric value in %, unit text excluded.

These recorded examples may help you get a feel for the data.
COMPOUND	response [%]
Clc1ccc(OCCCN2CCCCC2)c(Br)c1	0.07
COc1ccc(CCn2c(C)cc3c(c2=O)C(c2ccncc2)C(C#N)=C(N)O3)cc1OC (stereo unspecified)	0.22
CN=C1c2cc3cc(OC)ccc3n2CCN1C	-2.85
COc1cc2c(cc1O)CC[C@@H]1[C@@H]2CC[C@]2(C)[C@@H](O)CC[C@@H]12	-4.33
O=C(CCCCCCCC(=O)c1ccccc1)c1ccccc1	-4.73
COC(=O)c1cc(OC)c(OC)c(OC)c1[N+](=O)[O-]	39.5
CCOC(=O)C1=C(N)Oc2c(oc(CO)cc2=O)C1c1ccc(F)c(F)c1 (stereo unspecified)	-11.2
COC1=CC(=O)CC(C)C12Oc1c(Cl)c(OC)cc(OC)c1C2=O (stereo unspecified)	0.18
CC(C)NC(=O)c1ccc(C(C)C)cc1	-1.44
Cc1oc2c(C)c3oc(=O)c4c(c3cc2c1C)CCCC4	0.57

Query: What does the record list as response for "O=c1[nH]c(=O)n([C@H]2C[C@H](O)[C@@H](CO)O2)cc1F" ?
Result: -0.54

###

ASSAY REMARKS: modulators of CIT2-GFP expression in yeast, confirmation, S. cerevisiae, GFP fusion, cherry picks, mother/daughter gates (AID 2274)
CONDITION: S. cerevisiae CIT2-GFP strain, flow cytometry, 3 h; measured here: mother cell gate; at 10 µM; stronger effect = higher value
Items are presented alongside their recorded GFP response, % of DMSO.
Response body: numeric value in %, unit text excluded.

These recorded examples may help you get a feel for the data.
COMPOUND SMILES	GFP response, % of DMSO, %
O=C(O)CSc1nnc(-c2ccncc2)n1CCc1ccccc1	90.2
COc1cc(N2C(=O)C=CC2=O)c(OC)cc1Cl	79.4
COc1cc(/C=C2\N=C(c3ccccc3)OC2=O)ccc1OCc1c(C)no[n+]1[O-]	96.8

Query: What does the record list as GFP response, % of DMSO for "COc1cccc(-c2nnc(NC(=O)c3ccc(S(=O)(=O)N4CCOCC4)cc3)o2)c1" ?
Result: 100

Query: What do you get for "Cc1cc(N2CCN(C(=O)c3ccco3)CC2)n2ncc(-c3ccccc3)c2n1" ?
Result: 107
